- target: human TLR7 (Homo sapiens)
- Sequence (Q9NYK1 27-1049): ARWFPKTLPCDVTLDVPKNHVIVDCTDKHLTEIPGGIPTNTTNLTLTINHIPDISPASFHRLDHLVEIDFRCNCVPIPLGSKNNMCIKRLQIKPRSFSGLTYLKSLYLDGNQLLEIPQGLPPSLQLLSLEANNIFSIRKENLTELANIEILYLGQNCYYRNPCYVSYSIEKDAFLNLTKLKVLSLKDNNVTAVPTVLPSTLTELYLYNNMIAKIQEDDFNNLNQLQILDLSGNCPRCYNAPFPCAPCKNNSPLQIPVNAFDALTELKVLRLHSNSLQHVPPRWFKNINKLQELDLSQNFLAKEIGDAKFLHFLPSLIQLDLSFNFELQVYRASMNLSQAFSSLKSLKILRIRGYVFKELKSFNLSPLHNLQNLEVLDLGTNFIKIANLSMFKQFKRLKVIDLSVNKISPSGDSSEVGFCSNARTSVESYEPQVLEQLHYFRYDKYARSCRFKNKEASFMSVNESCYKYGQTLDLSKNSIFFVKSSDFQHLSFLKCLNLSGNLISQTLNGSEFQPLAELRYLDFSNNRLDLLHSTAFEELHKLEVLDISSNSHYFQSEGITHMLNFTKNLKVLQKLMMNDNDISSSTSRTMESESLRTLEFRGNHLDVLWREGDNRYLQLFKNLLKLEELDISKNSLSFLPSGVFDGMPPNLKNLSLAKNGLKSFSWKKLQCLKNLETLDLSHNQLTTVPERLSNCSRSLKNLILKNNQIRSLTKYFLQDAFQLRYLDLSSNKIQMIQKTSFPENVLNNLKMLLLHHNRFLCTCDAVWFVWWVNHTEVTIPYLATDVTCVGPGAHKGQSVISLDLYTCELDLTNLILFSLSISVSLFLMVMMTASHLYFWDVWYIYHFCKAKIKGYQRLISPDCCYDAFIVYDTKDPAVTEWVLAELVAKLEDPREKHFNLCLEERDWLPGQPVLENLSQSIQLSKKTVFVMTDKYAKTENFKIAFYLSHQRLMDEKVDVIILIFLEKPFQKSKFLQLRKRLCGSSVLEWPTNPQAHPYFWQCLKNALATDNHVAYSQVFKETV
- assay.overview: TLR7 inhibition reporter assay (HEK-Blue cells, secreted embryonic alkaline phosphatase reporter)
- condition.notes: HEK-Blue cells overexpressing human TLR7, stimulated with gardiquimod 7.5 μM; read-out: TLR 7 IC50
pIC50: −log10 of the molar value.
test.readout: pIC50

(a) Cc1cc(-c2ccc(CN3CCCC3)cc2)cc2c1nc(-c1ccc(S(C)(=O)=O)cc1)n2C
(b) CC(C)N1CCC(N2CCC(c3cc(F)c4c(c3)nc(-c3ccc(S(C)(=O)=O)cc3)n4C)CC2)CC1
(c) COc1ccc(-c2nc3ccc(C4CCN(C5CCN(C6CC6)CC5)CC4)cc3n2C)cc1OC
(d) COc1ccc(-c2nc3c(C)cc(C4CCN(C5CC6CCC(C5)N6CC(C)C)CC4)cc3[nH]2)cc1OC (single isomer, unassigned) [Example 20]
(e) CS(=O)(=O)c1ccc(-c2nc3c(F)cc(C4CCN(C5CC6CCC(C5)N6C5CCC5)CC4)cc3n2C2CC2)cc1 (single isomer, unassigned) [Example 326]
Rank entries according to their pIC50, from the largest number down. The response must list the labels following the requested ordering.
e, c, d, a, b

The measurements presented in this section are drawn from patent US12492188B2.
